tested on: Plasmodium falciparum; test: Primary screen in NF54 nanoGlo assay, in single point, at 2uM, 72h; assay type: functional, Erythrocyte; conditions: timepoint 72 hour
Among all 150,000 compounds or so, about 540 (0.36%) showed an effect of 50% or more. This is one part of a sample in which strong results are shown more often than they occur.
Assignment: determine reported Z score for the given compounds.
Give bare numbers.

Consider the worked cases shown below.
>>> obs_value("Cc1nc(C)c(C(=O)OCc2cccc3cccnc23)s1")
3.51
>>> obs_value("CC(C)(C)CCCC(=O)NCCn1cnnc1C1CC1")
1.32
>>> obs_value("CCC[N+]1(CC#C[C@@](O)(c2ccccc2)C2(C)CCCC2)CCCCC1")
-4.55
>>> obs_value("COc1ccc(Nc2nc(COC(=O)Cn3cnc4c3c(=O)n(C)c(=O)n4C)cs2)cc1")
0.88
>>> obs_value("CCC(C)(CC)[C@@](O)(C#CC[N+]1(Cc2ccccc2Cl)CCCCC1)c1ccccc1")
-4.45

Batch lookup, Z score per entry.
1. O=c1[nH]c(=O)n(CCS(=O)(=O)c2ccccc2)cc1Cl
2. Cc1cc(NC(=O)Cc2ccc(-c3ccccc3)cc2)n(-c2nc3c(c(=O)[nH]2)CCC3)n1
3. C[C@@H](C(=O)OCc1cccc2cccnc12)N1CCOCC1

1.09
0.86
0.63

====

test system: Plasmodium falciparum; experiment: Primary screen in NF54 nanoGlo assay, in single point, at 2uM, 72h; type: functional, Erythrocyte; conditions: timepoint 72 hour
About 540 (0.36%) of roughly 150,000 compounds showed an effect of 50% or more. The list comes from a sample in which strong results are over-represented; it also holds close analogues and randomly drawn compounds.
Assignment: determine reported Z score for the given compounds.

>>> obs_value("O=C(O)CCC(=O)NC1=NN2C(=NC(c3ccccc3)=C[C@H]2c2ccc(Cl)cc2)N1")
4.56
>>> obs_value("COc1ccc([C@@H]2C=C(c3ccc(Cl)cc3)N=C3NC(N4C(=O)c5ccccc5C4=O)=NN32)cc1")
0.61
>>> obs_value("O=C(NC1=NN2C(=NC(c3ccccc3)=C[C@H]2c2ccc(F)cc2)N1)c1ccccc1")
1.69
>>> obs_value("COc1ccccc1C(=O)NC1=NN2C(=NC(c3ccc(Cl)cc3)=C[C@H]2c2ccccc2)N1")
0.83
>>> obs_value("COc1ccc([C@@H]2C=C(c3ccc(Cl)cc3)N=C3NC(NC(=O)c4ccccc4OC)=NN32)cc1")
-8.52
>>> obs_value("C[C@@H]1CN(c2nc(C(F)F)nc3ccc(F)cc23)C[C@H](C)N1")
0.64
>>> obs_value("O=C(c1ccc(F)cc1)N1CCC(N2CCS(=O)(=O)CC2)CC1")
1.04
>>> obs_value("CCn1ccc(C(=O)N2CC(N(Cc3cccnc3)S(C)(=O)=O)C2)n1")
0.78
>>> obs_value("O=C(C1CCC(C2CC2)N1)N1CCC2(CCc3ccccc3C2=O)CC1 (stereo not given)")
-0.19

Here is another compound to look at.
Please report Z score for the following compound: Cc1nn(C)c(Cl)c1CNCc1ccc(N2CCCC2=O)cc1 0.6

====

tested on: Plasmodium falciparum; assay: Primary screen in NF54 nanoGlo assay, in single point, at 2uM, 72h; format: functional, Erythrocyte; conditions: timepoint 72 hour
About 540 (0.36%) of roughly 150,000 compounds showed an effect of 50% or more. The entries come from a sample that favours strong results as a whole.
Assignment: determine reported % Inhibition for the given compounds.
Answers are plain numbers, in %.

>>> obs_value("c1cc(-c2nc3ccccc3o2)cc(-c2nc3ccccc3o2)c1")
-13
>>> obs_value("CC(C)c1nccn1CC(=O)NC(C1CC1)C1CC1")
1
>>> obs_value("O=C(CCc1cc2n(n1)CCN(Cc1ccc3ccccc3n1)C2)NCCO")
-16
>>> obs_value("COCC(C)(C)c1noc(-c2ccc(C(F)(F)F)c(=O)[nH]2)n1")
-6

Batch lookup, % Inhibition per entry.
1. COc1c[nH]c(C(=O)NC2CCCC2)cc1=O
2. COc1cc(=O)n2c(c1C(=O)NC1CCN(Cc3ccccc3)CC1)CCCCC2
3. CC(=O)Nc1c(-c2ccc(F)cc2)c(C)nn1-c1ccc(C(=O)Nc2nc(C)cs2)cc1
4. N#Cc1nccnc1N[C@H]1CCCN(CC(F)(F)F)C1

1: -5; 2: -8; 3: -1; 4: -11

Batch lookup, % Inhibition per entry.
1. COc1ccc(Nc2nc(COC(=O)Cn3cnc4c3c(=O)n(C)c(=O)n4C)cs2)cc1
2. COc1cn(CC(=O)NC2CCN(Cc3ccccc3)CC2)c(CN2CCOCC2)cc1=O

-6
7

Batch lookup, % Inhibition per entry.
1. Clc1ccc(COc2ccc(Br)cc2CNc2ccc(-c3nc4ccccc4o3)cc2)c(Cl)c1
2. O=C(CN1C(=O)c2ccccc2C1=O)NC1CCN(Cc2ccccc2)CC1
3. CN(C[C@@H]1CCCN2CCCC[C@H]12)C(=O)Cc1c[nH]c2ccccc12
4. COc1c[nH]c(C(=O)NC2CCN(Cc3ccccc3)CC2)cc1=O
5. CC1(C)CO[C@@H](CC(=O)N2CCOC3(CCS(=O)(=O)CC3)C2)C1
6. CC(=O)Nc1c(-c2ccc(F)cc2)c(C)nn1-c1ccc(C(=O)Nc2cccc(F)c2)cc1
7. COc1cc([C@H](CC(=O)NC2CCN(Cc3ccccc3)CC2)N2Cc3ccccc3C2=O)cc(OC)c1OC
8. Clc1ccc(C[n+]2ccc(-c3nc4ccccc4o3)cc2)c(Cl)c1

1. -39
2. 4
3. -1
4. 60
5. 0
6. -5
7. 68
8. 79

Batch lookup, % Inhibition per entry.
1. COc1ccc(CN(Cc2ccco2)C(=O)c2cccc(F)c2)cc1OS(=O)(=O)c1ccc(F)cc1
2. CCN=C(NCc1noc(C)n1)NCc1ccccc1OC(C)(C)C
3. Cn1ncc2c1CCCN(c1nccn3nc(C(F)(F)F)cc13)C2

1. -33
2. -6
3. -10

====

tested on: Plasmodium falciparum; assay: Primary screen in NF54 nanoGlo assay, in single point, at 2uM, 72h; type: functional, Erythrocyte; details: timepoint 72 hour
In all, about 150,000 compounds went through this assay and about 540 (0.36%) showed an effect of 50% or more. The full list was thinned out, with strong results kept by preference.
Assignment: determine reported Z score for the given compounds.
One number for each entry.

Consider the worked cases shown below.
>>> obs_value("C#CCn1cnc(-c2ccccc2)c1NC(=O)CCc1ccc(C(C)C)cc1")
0.8
>>> obs_value("Cc1noc(Cl)c1CC(=O)N1CCCC(C)(C)CC1")
-6.85
>>> obs_value("COc1ccc(CN2C(=O)Cc3ccccc3[C@@H](C(=O)O)[C@@H]2c2ccccc2)c(OC)c1")
-0.05

Batch lookup, Z score per entry.
1. OC1=Nc2c(ncn2-c2cc(F)cc(F)c2)[C@@H](c2cccnc2)C1
2. O=C(NCc1c(F)cccc1Cl)c1cnc(-c2cccnc2)nc1

1: -3.88; 2: 1.75

Please report Z score for the following compound: CCCCN(C1CCCCCC1)S(=O)(=O)N1CCC[C@@H]1COC -0.54

====

test system: Plasmodium falciparum; test: Primary screen in NF54 nanoGlo assay, in single point, at 2uM, 72h; type: functional, Erythrocyte; settings: timepoint 72 hour
Among all 150,000 compounds or so, about 540 (0.36%) showed an effect of 50% or more. The full list was thinned out, with strong results kept by preference.
Outcome measure: % Inhibition (%)
Numbers only, in %.

>>> obs_value("COc1cc(C)c2[nH]c3c(c(=O)c2c1)CN(CC(=O)Nc1ccc2c(c1)OCCO2)CC3")
52
>>> obs_value("CCN(CC)CC(O)COc1c(Br)cc(C(C)(C)c2cc(Br)c(OCC(O)CN(CC)CC)c(Br)c2)cc1Br (stereo not given)")
99
>>> obs_value("COc1cc2c(cc1-c1nccn1Cc1noc(C(C)C)n1)OCO2")
5
>>> obs_value("CCCN(CCC)C[C@H](O)COc1c(Cl)cccc1Cl")
-6

Please report % Inhibition for the following compound: COc1ccccc1CCNC(=O)c1ccccc1N1CCC(NS(=O)(=O)c2ccc(F)cc2)CC1 11

====

system: Plasmodium falciparum; assay: Primary screen in NF54 nanoGlo assay, in single point, at 2uM, 72h; a lower Z score goes with more inhibition; assay type: functional, Erythrocyte; details: timepoint 72 hour
In all, about 150,000 compounds went through this assay and about 540 (0.36%) showed an effect of 50% or more. The entries come from a sample that favours strong results as a whole.
# note: exactly 0.05 is not below, so it is Not fulfilled; use Fulfilled for Z score strictly under it

Please review the following examples before continuing.
>>> answer_label("O=C(NCCn1c(=O)[nH]c2ccsc2c1=O)c1ccccc1Cl")
"Not fulfilled"
>>> answer_label("O=C(NCCN1C(=O)COC1=O)c1cccs1")
"Fulfilled"

Continue with the next compound.
I wonder whether Cc1ccsc1CN(CCN1CCOCC1)[C@H]1CCCNC1 has Z score below 0.05. Can you tell? Not fulfilled
